Test system: CAKI-1 renal
Assay: NCI-60 one-dose screen, 48 h (100 = growth as untreated, 0 = no growth, -100 = all killed)
Conditions: 10 µM unless noted
Compounds without any hit were thinned out: in the full panel of roughly 83,000, 20% have a hit.
measurementType: growth (%)
Please reply with the bare figure in % and do not write the unit itself.

Worked cases, answers included:
>  <compound>
CC(=O)O[C@H]1C(=O)[C@@]2(C)[C@H]([C@H](OC(=O)c3ccccc3)[C@]3(O)C[C@H](OC(=O)[C@H](OC(=O)OC[C@H]4COC(C)(C)O4)[C@@H](NC(=O)c4ccccc4)c4ccccc4)C(C)=C1C3(C)C)[C@]1(OC(C)=O)CO[C@@H]1C[C@@H]2O

>  <experimentalSystem>
CAKI-1 renal

>  <valueUnits>
%

>  <dataValue>
20.7

$$$$
>  <compound>
OCCNC(Cc1ccccc1)c1ccc2c(c1)OCO2 (centres undefined)

>  <experimentalSystem>
CAKI-1 renal

>  <valueUnits>
%

>  <dataValue>
97.1

$$$$
>  <compound>
O=C1C(N2CC2)=C(N2CC2)C(=O)C(N2CC2)=C1N1CC1

>  <experimentalSystem>
CAKI-1 renal

>  <valueUnits>
%

>  <dataValue>
7.04

$$$$

Observed growth on CAKI-1 renal for CC1[C@H](C)OC(=O)CC(O)CC(O)CC(O)CCC(O)C(O)C[C@]2(O)CC(O)C(C(=O)O)C(CC(OC3O[C@H](C)[C@@H](O)[C@H](N)[C@@H]3O)/C=C/C=C/C=C/C=C/CC/C=C/C=C/[C@H](C)[C@H]1O)O2 (some centres undefined) , please.
88.6
